METHOD DESCRIPTION: in vitro
ASSAY CONTEXT: human
IC50 at 48 h values, listed per item

Worked cases, answers included:
# COMPOUND, IC50 at 48 h
rows = [
    ("CCCCCCCCCCCC[C@@H]1C[C@@H](O)[C@H](O)[C@@H](C)O1 [Compound 10]", "> 100 µM"),
    ("CCCCCCCCCCCCO[C@@H]1C[C@@H](O)[C@H](O)CO1 [Compound 17]", "> 100 µM"),
    ("CCCCCCCCCCCCO[C@H]1C[C@@H](O)[C@H](O)CO1 [Compound 18]", "> 50 µM"),
]

Value of IC50 at 48 h reported for the compound CCCCCCCCCCCCO[C@H]1C[C@H](O)[C@@H](O)[C@H](C)O1 [Compound 1] is > 50 µM

Value of IC50 at 48 h reported for the compound CCCCCCCCCCCCS[C@H]1C[C@H](O)[C@@H](O)[C@H](C)O1 [Compound 2] is > 50 µM

Value of IC50 at 48 h reported for the compound CCCCCCCCCCCCO[C@@H]1C[C@@H](O)[C@H](O)[C@@H](CO)O1 [Compound 13] is > 50 µM
